- System: HCC 2998
- procedure.text: NCI tumour cell line growth inhibition, 48 h
The source made the active and inactive calls. Cut-off read from the data, not from the text of the source: active = GI50 up to about 1.1 µM and inactive = higher.
Recorded GI50 values for a group of compounds are listed next.

Sample records with GI50:
Query :: Name the recorded GI50 of the compound listed here: CO/N=C1\CC(NC(=O)C(F)(F)F)c2ccsc21 (stereo unspecified)
Result :: > 100 µM (inactive)

Query :: Write down GI50 measured for item Cc1cccc(C)c1NC(=O)CCC/C(CC(=O)c1ccc(F)cc1)=N\NC(=O)C(=O)NN
Result :: > 100 µM (inactive)

Query :: Please indicate GI50 recorded for O=C1OC(OC/C(Br)=C(\Br)COC2OC(=O)C(Cl)=C2Cl)C(Cl)=C1Cl (stereo unspecified)
Result :: 17.9 µM (inactive)

Query :: Output measured GI50 for this item: c1ccc2sc(SCN(C3CCCCC3)C3CCCCC3)nc2c1
Result :: > 100 µM (inactive)

Query :: Report measured GI50; entry is O=[N+]([O-])c1ccc(NC2OCC(O)C(O)C2O)cc1 (stereo unspecified)
Result :: > 100 µM (inactive)

New cases:
Query :: Consider the compound Cc1ccc(C)c(NC(=O)CCc2n[nH]c(=S)o2)c1 . State its measured GI50.
Result :: > 100 µM (inactive)

Query :: Please give measured GI50 of the following entry: O=c1cc(-c2ccccc2)oc2c1ccc1nc3ccccc3c(O)c12
Result :: 62.8 µM (inactive)

Query :: Give me measured GI50, please, for this compound: Nc1c2c(nc3ccccc13)CCCc1ccccc1-2
Result :: 1.83 µM (inactive)

Query :: Fill in GI50 for record COC(=O)CC[N+]1([O-])CC1
Result :: > 100 µM (inactive)

Query :: Entry Cc1cc2nc(O)c(C(C)C(=O)c3ccc(Cl)cc3)nc2cc1C (stereo unspecified) needs its GI50 filled in; supply it.
Result :: 13.5 µM (inactive)

Query :: Supply measured GI50 of COc1ccc2c(c1)CC1c3c(ccc(OC)c3O)CC2N1C (stereo unspecified) in your reply.
Result :: 16.8 µM (inactive)

###

- Tested on: NCI/ADR-RES
- procedure.text: NCI tumour cell line growth inhibition, 48 h
Activity calls are given as the source filed them. Rule as the data show it: active = GI50 up to about 1.1 µM and inactive = higher.
Answer with one of the outcomes true for active, false for inactive

Please review the entries below; each comes with its answer.
Query :: Returns: the outcome recorded for CC(C)=CC1C(C(=O)O)C1(C)C (stereo not given) in this assay.
Result :: false

Query :: Fill in: this test's call for CN1CC[N+](C)=C1c1ccccc1 is ___
Result :: false

Query :: Look up the recorded call for CS[C@]12C(=O)C[C@@]3(C)[C@@H](CC[C@]3(O)C(=O)CO)[C@@H]1CCC1=CC(=O)CC[C@@]12C in this test.
Result :: false

Query :: Record lookup: outcome of this test for CC(C)NC(=O)OCc1c(COC(=O)NC(C)C)n(C)c2c1ccc1ccsc12 ?
Result :: false

Query :: Kindly provide the recorded test outcome for the following compound: C=CCNC(=S)N/N=C1\C(=O)N(CN2CCOCC2)c2ccc([N+](=O)[O-])cc21
Result :: false

Others:
Query :: Could you check what this test reported for CSC1(CC(=O)N(C)C)C(=O)Nc2ccccc21 (stereo not given) ?
Result :: false

Query :: // param item: COc1cc(OC)c2nc(C)c(CCCl)c(Cl)c2c1 ; yields the recorded call
Result :: false

Query :: Test call, this compound: C/C(=N\NC(=S)N1CCCCCCCCCCCC1)c1ccccn1
Result :: true

Query :: What did this assay record as the result for CC(C)CCC1(CCN)C(=O)NC(=O)NC1=O ?
Result :: false

Query :: Any idea what this test logged for CC(=O)Oc1ccc(-c2c(OC(C)=O)c(OC(C)=O)c(-c3ccc(OC(C)=O)c(OC(C)=O)c3)c(OC(C)=O)c2OC(C)=O)cc1 ?
Result :: false

Source of measurements: ChEMBL document CHEMBL1201862
